Cited source: a melting point compilation (Tetko et al.; mined from patent text by program, amines drawn as free bases though some values may be those of a salt)

Documented melting point across a set of compounds
property_measured: melting point

> print(dat)
                                    compound  property.measured  recorded.result
 1  CN1C(=O)CC[C@]2(C)c3ccc(-c4cc5ccccc5s4)cc3CC[C@@H]12      melting point    247 to 250 °C
 2                        c1ccc2c(c1)CSCCCN2      melting point      77 to 79 °C
 3              COC(=O)c1cc(Cl)cc(C(=O)OC)n1      melting point    132 to 134 °C
 4  C=CC(=O)NC(CCC(=O)O)C(=O)O (configuration not stated)      melting point    125 to 127 °C
 5  COc1cccc(C(O)c2cccnc2Cl)c1 (configuration not stated)      melting point    114 to 115 °C
 6  COc1cn(-c2ccc(-n3cccn3)cc2F)nc(-c2ccnn2-c2cccc(Cl)c2)c1=O      melting point    186 to 190 °C
 7               COc1ccc2c3c(ccc2c1)CC(=O)C3      melting point    138 to 140 °C
 8  CCc1n[nH]c2cc(-c3ccc4nnn(Cc5ccc6ncccc6c5)c4n3)ccc12      melting point    211 to 213 °C
 9  CCOC(=O)C1=C(C)NC2(C)ON=C(C)C2C1c1ccccc1[N+](=O)[O-] (configuration not stated)      melting point           212 °C
10       COC(=O)Cc1ccc(C(=O)c2ccc(OC)cc2)n1C      melting point    104 to 105 °C
11  CC(C)(C)c1ccc(CSc2ccc3c(c2)OCC(=O)N3)cc1      melting point    134 to 136 °C
12  CCCCOC(=O)c1cc([N+](=O)[O-])c(Cl)c(S(N)(=O)=O)c1      melting point    140 to 141 °C
13       Cc1oc(-c2ccccc2)nc1CCOc1ccc(CNO)cc1      melting point     99 to 102 °C
14  O=C(Oc1ccccc1N1c2ccccc2Sc2ccccc21)c1ccccc1      melting point    144 to 148 °C
15                  Cc1cccc2c1Sc1c(C)cccc1N2      melting point    140 to 141 °C
16  CC(C)(C)NCC(O)c1cc(Cl)c(NC(=O)c2ccccc2)c(Cl)c1 (configuration not stated)      melting point    177 to 182 °C
17  CCc1nc2c(cnn2CC)c(NC2CCOCC2)c1CNC(=O)c1cc(C)cc(C(=O)NCc2ccc(OC)c(Br)c2)c1      melting point    123 to 126 °C
18    COc1ccc2[nH]c(SCc3ncc(C)c(OC)c3C)nc2c1      melting point    120 to 121 °C
19  CC1(C)NC(=O)N(c2ccc(Cl)c(C(F)(F)F)c2)C1=O      melting point    152 to 153 °C
20       CCOC(=O)c1ccc(NC(=O)CNc2ccccc2F)cc1      melting point    169 to 170 °C
21  N#Cc1ccc(C(O)c2occc(=O)c2OCc2ccccc2)cc1 (configuration not stated)      melting point    135 to 138 °C
22  COc1ccc2c(ccc3c4ccc(OC)cc4c(=O)n(-c4ccc(OCCN5CCCCC5)cc4)c23)c1      melting point           176 °C

====

Documented melting point across a set of compounds
property_measured: melting point

> print(dat)
                                   compound  property.measured  recorded.result
1  CCOC(=O)c1cn(CC)c2cc(-c3cc(C)nc(C)c3)c(F)cc2c1=O      melting point    221 to 224 °C
2  O=C(O)CNC(=O)c1cccc2c(-c3ccccc3)c([N+](=O)[O-])oc12      melting point    123 to 126 °C
3                O=C(O)CCCNC(=O)c1cc(Br)no1      melting point    140 to 141 °C
4  O=C(NC(Oc1ccc(Cl)cc1)C(Cl)(Cl)Cl)c1ccccc1O (configuration not stated)      melting point    116 to 117 °C
5  O=C(c1cc2ccc(N3CCCCC3)cc2o1)C12CC3CC(CC(C3)C1)C2      melting point    150 to 152 °C
6             O=C(CCCCSc1ccc(O)cc1)N1CCOCC1      melting point    112 to 113 °C
7     CC(=O)SCC(=O)NCCSC=CSCCNC(=O)CSC(C)=O      melting point           129 °C

====

Documented melting point across a set of molecules
property_measured: melting point

> print(dat)
                                    compound  recorded.result
 1  O=C(Nc1cc(=O)n(-c2c(Cl)cc(C(F)(F)F)cc2Cl)[nH]1)c1ccccc1           288 °C
 2  Cc1nnc(-c2ccc3ncn(-c4ccc(OC(F)(F)F)c(Cl)c4)c3c2)o1    211 to 212 °C
 3  Cc1oc(-c2ccccc2)nc1CSc1ccc(S(=O)(=O)Nc2ccccc2C(=O)O)cc1    182 to 184 °C
 4  O=C(O)COc1cccc2c1CCc1sc(SCC(c3ccccc3)c3ccccc3)nc1-2    223 to 225 °C
 5              O=C1CN=C(c2ccccc2)c2ccccc2N1    180 to 181 °C
 6                  COc1ccc2c(c1O)CCN(C=O)C2    172 to 174 °C
 7                          COc1cnc(CO)cc1OC    122 to 124 °C
 8  CC(=O)CCNc1cc(C(=O)O)cc(S(N)(=O)=O)c1Oc1ccccc1    215 to 216 °C
 9  CC(=O)N1CCC(C(=O)N(CCCN2CCC(Cc3ccccc3)CC2)c2ccc(C)c(Cl)c2)CC1      96 to 99 °C
10              COC(=O)c1cccnc1C(=O)c1ccccc1            74 °C

====

Documented melting point across a set of compounds
property_measured: melting point

> print(dat)
                                   compound  recorded.result
1  O=C(O)COc1c(-c2cccc(Cl)c2)cc(C(=O)NCCCCCCCCc2ccccc2)cc1-c1cccc(Cl)c1    165 to 167 °C
2                CCCCCCCCCCCOc1ccc(O)cc1C=O      66 to 67 °C
3     O=C1c2ccccc2C(=O)N1CSc1nnnn1-c1ccccc1    146 to 147 °C

====

Documented melting point across a set of compounds
property_measured: melting point

> print(dat)
                                    compound  property.measured  recorded.result
 1     COc1cc2cc3c(Cl)ncnc3cc2cc1OCCN1CCOCC1      melting point    166 to 168 °C
 2  c1cn(CCCc2ccc(OCc3coc(-c4ccsc4)n3)cc2)cn1      melting point    102 to 103 °C
 3           CC(C)NC1=NS(=O)(=O)c2c(cnn2C)N1      melting point    242 to 243 °C
 4  Oc1ccc(C2CCCN2CCN2CCOCC2)cc1 (centres undefined)      melting point    107 to 108 °C
 5  CC(C)CCNC(=O)c1ccc(-c2nn(Cc3cccc(Cl)c3)c(=S)[nH]2)cc1      melting point    218 to 220 °C
 6  Cc1cc(C)c(C(=O)COc2ccc(C(=O)C(=O)O)cc2)c(C)c1      melting point    144 to 145 °C
 7  CC(=O)Nc1ccc(S(=O)(=O)NC23CC4CC(CC(C4)C2)C3)cc1      melting point           290 °C
 8  COc1ccc2c(c1)[C@@]1(C(=O)O)CCCC[C@H]1CC2 (relative stereo)      melting point    171 to 173 °C
 9  c1ccc(CCCNc2ccc(-c3cc(-c4ccc(NCCCc5ccccc5)cc4)cc(-c4ccc(NCCCc5ccccc5)cc4)c3)cc2)cc1      melting point           105 °C
10  COc1ccc(OC)c(CC2=C(C)C(=O)C3C=CC=CC3C2=O)c1 (centres undefined)      melting point    140 to 142 °C
11          COc1ccc(/C(=C\C=O)c2ccccc2OC)cc1      melting point      92 to 94 °C
12  CCCCC#Cc1ccc(-c2cc(C(F)(F)F)nn2-c2ccc(S(C)(=O)=O)cc2)cc1      melting point      96 to 98 °C
13  O=C1CCC(N2Cc3c(OCc4ccc(CN5CCN(S(=O)(=O)c6ccccc6)CC5)cc4)cccc3C2=O)C(=O)N1 (centres undefined)      melting point    220 to 222 °C
14   COc1cc(O)c(C(=O)C=Cc2ccc(Cl)cc2)c(OC)c1      melting point           167 °C
